Reported values of Substrate content % for individual entries
assay-explanation: Stability in human plasma
measurement-conditions: within 20 hours
*1 amine or outer side, *2 acyl side, *3 side chain or, on linkers, in order; H or OH if unused. Where a SMILES comes first, the peptide text is derived from it. [ ]: non-standard residue; d: D form. The star is where a group is joined. Exatecan = CC[C@@]1(O)C(=O)OCc2c1cc1n(c2=O)Cc2c-1nc1cc(F)c(C)c3c1c2[C@@H](N*)CC3; X5 = CCc1c2c(nc3ccc(OCN*)cc13)-c1cc3c(c(=O)n1C2)COC(=O)[C@]3(O)CC; Hexanoyl(6-maleimido) = O=C1C=CC(=O)N1CCCCCC(=O)*; X7 = O=C(OC1[C@H]2CCC#CCC[C@@H]12)*; DBCO = C1#Cc2ccccc2N(*)Cc2ccccc21; NHCH2OCH2CO = O=C(COCN[*:1])[*:2]; Suc = O=C(CCC(=O)[*:2])[*:1]; PEG3 = NCCOCCOCCOCCC(=O)O; GABA = NCCCC(=O)O
value-kind: Substrate content % (%)

compound="CC[C@@]1(O)C(=O)OCc2c1cc1n(c2=O)Cc2c-1nc1cc(F)c(C)c3c1c2[C@@H](NC(=O)COCNC(=O)[C@H](CC(C)C)NC(=O)[C@H](Cc1ccccc1)NC(=O)CNC(=O)CNC(=O)CCOCCOCCOCCNC(=O)CCC(=O)N1Cc2ccccc2C#Cc2ccccc21)CC3 [S34] ({DBCO-Suc-PEG3}-GGFL[NHCH2OCH2CO]-Exatecan)" value_kind="Substrate content %" numeric_readout=98.3
compound="CC[C@@]1(O)C(=O)OCc2c1cc1n(c2=O)Cc2c-1nc1cc(F)c(C)c3c1c2[C@@H](NC(=O)CCCNC(=O)[C@H](CC(C)C)NC(=O)[C@H](Cc1ccccc1)NC(=O)CNC(=O)CNC(=O)CCOCCOCCOCCNC(=O)OC1[C@H]2CCC#CCC[C@@H]12)CC3 (stereo partly drawn) [S28] ({X7-PEG3}-GGFL[GABA]-Exatecan)" value_kind="Substrate content %" numeric_readout=100
compound="CCc1c2c(nc3ccc(OCNC(=O)[C@H](CC(C)C)NC(=O)[C@H](Cc4ccccc4)NC(=O)CNC(=O)CNC(=O)CCCCCN4C(=O)C=CC4=O)cc13)-c1cc3c(c(=O)n1C2)COC(=O)[C@]3(O)CC [S14] ({Hexanoyl(6-maleimido)}-GGFL-X5)" value_kind="Substrate content %" numeric_readout=98.0

###

Reported values of Substrate content % for individual entries
assay-explanation: Stability in human plasma
measurement-conditions: within 20 hours
*1 amine or outer side, *2 acyl side, *3 side chain or, on linkers, in order; H or OH if unused. Where a SMILES comes first, the peptide text is derived from it. [ ]: non-standard residue; d: D form. The star is where a group is joined. Exatecan = CC[C@@]1(O)C(=O)OCc2c1cc1n(c2=O)Cc2c-1nc1cc(F)c(C)c3c1c2[C@@H](N*)CC3; Hexanoyl(6-maleimido) = O=C1C=CC(=O)N1CCCCCC(=O)*; NHCH2OCH2CO = O=C(COCN[*:1])[*:2]; X6 = O=C1C=C(Br)C(=O)N1CCC(=O)*; X2 = COCCOCCOCCOCCOCCOCC(=O)*
value-kind: Substrate content %

molecule="CC[C@@]1(O)C(=O)OCc2c1cc1n(c2=O)Cc2c-1nc1cc(F)c(C)c3c1c2[C@@H](NC(=O)[C@H](CC(C)C)NC(=O)[C@H](Cc1ccccc1)NC(=O)CNC(=O)CNC(=O)CCN1C(=O)C=C(Br)C1=O)CC3 [S26] (X6-GGFL-Exatecan)" value_kind="Substrate content %" result=100%
molecule="CC[C@@]1(O)C(=O)OCc2c1cc1n(c2=O)Cc2c-1nc1cc(F)c(C)c3c1c2[C@@H](NC(=O)COCNC(=O)[C@H](CC(C)C)NC(=O)[C@H](Cc1ccccc1)NC(=O)CNC(=O)CNC(=O)[C@H](CCCCNC(=O)COCCOCCOCCOCCOCCOC)NC(=O)CCCCCN1C(=O)C=CC1=O)CC3 [S8] ({Hexanoyl(6-maleimido)}-K(X2)GGFL[NHCH2OCH2CO]-Exatecan)" value_kind="Substrate content %" result=98.0%
molecule="CCCCc1nc2c(N)nc3ccccc3c2n1CCCCNC(=O)[C@H](CC(C)C)NC(=O)[C@H](Cc1ccccc1)NC(=O)CNC(=O)CNC(=O)CCOCCOCCOCCNC(=O)OC1[C@H]2CCC#CCC[C@@H]12 (stereo partly shown) [S27]" value_kind="Substrate content %" result=100%
molecule="CC[C@@]1(O)C(=O)OCc2c1cc1n(c2=O)Cc2c-1nc1cc(F)c(C)c3c1c2[C@@H](NC(=O)COCNC(=O)[C@H](CC(C)C)NC(=O)[C@H](Cc1ccccc1)NC(=O)CNC(=O)CNC(=O)CCCCCN1C(=O)C=CC1=O)CC3 [S6] ({Hexanoyl(6-maleimido)}-GGFL[NHCH2OCH2CO]-Exatecan)" value_kind="Substrate content %" result=98.0%

###

study-system: cathepsin L (Homo sapiens)
assay-explanation: Enzymatic cleavage by cathepsin L, released DXD quantified by HPLC
Assay type: biochemical
Where a SMILES comes first, the peptide text is derived from it. [ ]: non-standard residue; d: D form. The star is where a group is joined. Exatecan = CC[C@@]1(O)C(=O)OCc2c1cc1n(c2=O)Cc2c-1nc1cc(F)c(C)c3c1c2[C@@H](N*)CC3; X9 = Nc1ccn([C@@H]2O[C@H](COCN*)[C@@H](O)C2(F)F)c(=O)n1; Dolaproine = CO[C@@H]([C@@H]1CCCN1)[C@@H](C)C(=O)O; Hexanoyl(6-maleimido) = O=C1C=CC(=O)N1CCCCCC(=O)*; Dil = CC[C@H](C)[C@H](NC)[C@@H](CC(=O)O)OC; X3 = C[C@@H](N*)[C@@H](O)c1ccccc1; NMeV = CN[C@H](C(=O)O)C(C)C
value-kind: Enzymatic cleavage efficiency % (%)

compound="CC[C@H](C)[C@@H]([C@@H](CC(=O)N1CCC[C@H]1[C@H](OC)[C@@H](C)C(=O)N[C@H](C)[C@@H](O)c1ccccc1)OC)N(C)C(=O)[C@@H](NC(=O)[C@H](C(C)C)N(C)C(=O)[C@H](CC(C)C)NC(=O)[C@H](Cc1ccccc1)NC(=O)CNC(=O)CNC(=O)CCCCCN1C(=O)C=CC1=O)C(C)C [S5] ({Hexanoyl(6-maleimido)}-GGFL[NMeV]V[Dil][Dolaproine]-X3)" numeric_readout=93.1
compound="CC[C@@]1(O)C(=O)OCc2c1cc1n(c2=O)Cc2c-1nc1cc(F)c(C)c3c1c2[C@@H](NC(=O)[C@H](CC(C)C)NC(=O)[C@H](Cc1ccccc1)NC(=O)CNC(=O)CNC(=O)CCCCCN1C(=O)C=CC1=O)CC3 [S2] ({Hexanoyl(6-maleimido)}-GGFL-Exatecan)" numeric_readout=91.1
compound="CC(C)C[C@H](NC(=O)[C@H](Cc1ccccc1)NC(=O)CNC(=O)CNC(=O)CCCCCN1C(=O)C=CC1=O)C(=O)NCOC[C@H]1O[C@@H](n2ccc(N)nc2=O)C(F)(F)[C@@H]1O [S16] ({Hexanoyl(6-maleimido)}-GGFL-X9)" numeric_readout=92.3

###

study-system: cathepsin L (Homo sapiens, UniProt P07711)
Sequence (P07711 114-333): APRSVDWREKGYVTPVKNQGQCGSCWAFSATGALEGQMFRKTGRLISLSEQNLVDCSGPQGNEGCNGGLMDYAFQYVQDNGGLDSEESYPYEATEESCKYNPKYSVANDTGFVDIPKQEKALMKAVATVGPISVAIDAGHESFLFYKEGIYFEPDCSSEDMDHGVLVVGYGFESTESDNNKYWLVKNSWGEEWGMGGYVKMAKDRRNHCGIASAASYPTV
assay-explanation: Enzymatic cleavage by cathepsin L, released DXD quantified by HPLC
Assay type: biochemical
*1 amine or outer side, *2 acyl side, *3 side chain or, on linkers, in order; H or OH if unused. Where a SMILES comes first, the peptide text is derived from it. [ ]: non-standard residue; d: D form. The star is where a group is joined. Exatecan = CC[C@@]1(O)C(=O)OCc2c1cc1n(c2=O)Cc2c-1nc1cc(F)c(C)c3c1c2[C@@H](N*)CC3; X4 = CCCCc1nc2c(N)nc3ccccc3c2n1CCCCN*; X7 = O=C(OC1[C@H]2CCC#CCC[C@@H]12)*; DBCO = C1#Cc2ccccc2N(*)Cc2ccccc21; NHCH2OCH2CO = O=C(COCN[*:1])[*:2]; Suc = O=C(CCC(=O)[*:2])[*:1]; PEG3 = NCCOCCOCCOCCC(=O)O; GABA = NCCCC(=O)O
Reported values of Enzymatic cleavage efficiency % for individual entries
value-kind: Enzymatic cleavage efficiency %

molecule="CCCCc1nc2c(N)nc3ccccc3c2n1CCCCNC(=O)[C@H](CC(C)C)NC(=O)[C@H](Cc1ccccc1)NC(=O)CNC(=O)CNC(=O)CCOCCOCCOCCNC(=O)CCC(=O)N1Cc2ccccc2C#Cc2ccccc21 [S31] ({DBCO-Suc-PEG3}-GGFL-X4)" value_kind="Enzymatic cleavage efficiency %" result=97.5%
molecule="CC[C@@]1(O)C(=O)OCc2c1cc1n(c2=O)Cc2c-1nc1cc(F)c(C)c3c1c2[C@@H](NC(=O)COCNC(=O)[C@H](CC(C)C)NC(=O)[C@H](Cc1ccccc1)NC(=O)CNC(=O)CNC(=O)CCOCCOCCOCCNC(=O)CCC(=O)N1Cc2ccccc2C#Cc2ccccc21)CC3 [S34] ({DBCO-Suc-PEG3}-GGFL[NHCH2OCH2CO]-Exatecan)" value_kind="Enzymatic cleavage efficiency %" result=98.1%
molecule="CC[C@@]1(O)C(=O)OCc2c1cc1n(c2=O)Cc2c-1nc1cc(F)c(C)c3c1c2[C@@H](NC(=O)CCCNC(=O)[C@H](CC(C)C)NC(=O)[C@H](Cc1ccccc1)NC(=O)CNC(=O)CNC(=O)CCOCCOCCOCCNC(=O)OC1[C@H]2CCC#CCC[C@@H]12)CC3 (stereo partly drawn) [S28] ({X7-PEG3}-GGFL[GABA]-Exatecan)" value_kind="Enzymatic cleavage efficiency %" result=95.1%
